Target: 3',5'-cyclic-AMP phosphodiesterase 4B (Homo sapiens) (UniProt Q07343)
Sequence (Q07343 whole entry, looked up): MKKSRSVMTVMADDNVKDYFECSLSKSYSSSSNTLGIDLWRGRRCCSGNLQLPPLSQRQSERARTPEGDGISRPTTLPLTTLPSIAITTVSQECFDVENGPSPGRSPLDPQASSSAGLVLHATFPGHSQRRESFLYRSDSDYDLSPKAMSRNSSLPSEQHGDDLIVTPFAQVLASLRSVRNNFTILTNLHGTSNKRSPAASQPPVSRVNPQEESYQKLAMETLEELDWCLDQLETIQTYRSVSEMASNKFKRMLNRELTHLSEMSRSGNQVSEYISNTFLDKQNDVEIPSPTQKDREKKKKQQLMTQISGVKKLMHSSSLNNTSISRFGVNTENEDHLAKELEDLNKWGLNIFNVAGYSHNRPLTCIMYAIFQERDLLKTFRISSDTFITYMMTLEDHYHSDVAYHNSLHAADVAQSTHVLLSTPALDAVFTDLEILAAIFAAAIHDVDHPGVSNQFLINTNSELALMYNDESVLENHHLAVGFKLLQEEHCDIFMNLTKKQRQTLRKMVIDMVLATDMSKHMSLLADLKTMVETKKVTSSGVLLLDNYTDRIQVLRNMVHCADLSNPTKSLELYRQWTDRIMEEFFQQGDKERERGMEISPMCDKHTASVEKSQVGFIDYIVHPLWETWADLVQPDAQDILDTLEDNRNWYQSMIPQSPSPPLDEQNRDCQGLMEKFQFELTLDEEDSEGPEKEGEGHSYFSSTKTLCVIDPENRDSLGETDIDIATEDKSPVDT
Test: qHTS Assay for Inhibitors of PDE-IV (AID 607)
Conditions: HEK293 ACTOne CNG channel cells, membrane potential fluorescence; series mostly up to 22.9 µM
Inconclusive results are not listed. Activity calls are given as the source filed them. The call rests on the fitted dose curve; in most records, active means well fitted activation curve with a large enough effect in the main read-out, with a control signal flat (not every such curve was filed as active); inconclusive means small, poorly fitted or top-dose-only effect, or effect the other way, or a change in a side signal; inactive means flat fitted curve, though single readings scatter.
TEST_READOUT: outcome

>>> print(df.to_string())
                                   compound     value
0          CC(NC(=O)c1ccccc1)(C(=O)O)C(=O)O  inactive
1  Cc1ccc(C(=N)c2ccccc2Cc2cccc3ccccc23)c2ccccc12  inactive
2  Nc1ccc(CCNc2ncnc3c2ncn3[C@@H]2O[C@@H](CO)[C@H](O)[C@@H]2O)cc1  inactive
3       C[N+](C)(C)c1ccc([C@H](N)C(=O)O)cc1  inactive

Can you look up the measured outcome of Nc1nc2c(c(=O)[nH]1)CN(c1ccc(S(N)(=O)=O)cc1)CN2 for me?
inactive

And the next one, CC1CCC(C(=O)O)([C@H](Br)C(=O)O)CC1 (some centres not stated) ?
inactive

And the next one, C[C@@H](N)[C@@H](C)Cc1ccccc1 ?
inactive

And the next one, O=C1C(Cl)=C(Sc2nnc3c4ccccc4c4ccccc4c3n2)C(=O)c2ccccc21 ?
inactive

And the next one, C=C(C)CN(CC#N)CC(=C)C ?
inactive
